target: Artificial Cell Surface (ACS): biotinylated cell surface proteins of human PBMCs bound to a streptavidin column (human); experiment: adsorption on ACS column, MALDI-TOF ms
Please provide measured Percent Absorbed for the entries that follow.
Unit % implied. Number only.

Entry DHVKLVNEVTEFAKTCVA [Asp-N-generated albumin fragment, SEQ ID NO 217] , Percent Absorbed reported as 100

Entry FKDLGEENFK [Trypsin-generated albumin fragment, SEQ ID NO 213] , Percent Absorbed reported as 8

Entry DETYVPKEFNAETFTHA [Asp-N-generated albumin fragment, SEQ ID NO 220] , Percent Absorbed reported as 86

Entry YLYEIAR [Trypsin-generated albumin fragment, SEQ ID NO 203] , Percent Absorbed reported as 34

Entry LCTVATLR [Trypsin-generated albumin fragment, SEQ ID NO 202] , Percent Absorbed reported as 35

Entry DSISSKLKECCEKPLLEKSHCIAEVEN [Asp-N-generated albumin fragment, SEQ ID NO 221] , Percent Absorbed reported as 65

Entry YSVVLLLRLAKTYETTLEKCCAAADPHECYAKVF [Asp-N-generated albumin fragment, SEQ ID NO 223] , Percent Absorbed reported as 100

Entry KLCTVATLRETYGEMADCCAKQEPERNECFLQHK [Asp-N-generated albumin fragment, SEQ ID NO 224] , Percent Absorbed reported as 100

Entry KYLYEIAR [Trypsin-generated albumin fragment, SEQ ID NO 194] , Percent Absorbed reported as 71

Entry AAFTECCQAADK [Trypsin-generated albumin fragment, SEQ ID NO 205] , Percent Absorbed reported as 29

Entry DDKETCFAEEGKKLVAASQAALGL [Asp-N-generated albumin fragment, SEQ ID NO 218] , Percent Absorbed reported as 100

Entry LGEENFKALVLIAFAQYLQQCPFEDHVKLVNEVTEFAKTCVA [Asp-N-generated albumin fragment, SEQ ID NO 228] , Percent Absorbed reported as 100

Entry RVTKCCTESLVNRRPCFSALEVDETYVPKEFNAETFTFHA [Asp-N-generated albumin fragment, SEQ ID NO 229] , Percent Absorbed reported as 100

Entry FQNALLVR [Trypsin-generated albumin fragment, SEQ ID NO 199] , Percent Absorbed reported as 41

Entry SLHTLFGDK [Trypsin-generated albumin fragment, SEQ ID NO 200] , Percent Absorbed reported as 36
